B1: HDV Ribozyme (parent)
chain: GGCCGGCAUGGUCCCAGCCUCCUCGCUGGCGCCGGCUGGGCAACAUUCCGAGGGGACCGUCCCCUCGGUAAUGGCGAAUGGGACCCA

- Variants of: B1
- Experiment: self-cleavage, relative activity (ratio to wild type); higher = more cleavage; co-transcriptional
Assay readout: self-cleavage

[[record]]
changes = "G34A G50U"
assay_readout = "self-cleavage"
value = 0.187

[[record]]
changes = "C13U G76U"
assay_readout = "self-cleavage"
value = 0.813

[[record]]
changes = "U9G C19U"
assay_readout = "self-cleavage"
value = 0.119

[[record]]
changes = "C48G A87U"
assay_readout = "self-cleavage"
value = 1.09

[[record]]
changes = "G38A G50U"
assay_readout = "self-cleavage"
value = 0.157

[[record]]
changes = "G5C A70U"
assay_readout = "self-cleavage"
value = 0

[[record]]
changes = "G81C C84G"
assay_readout = "self-cleavage"
value = 0.256

[[record]]
changes = "C7A G54A"
assay_readout = "self-cleavage"
value = 0.504

[[record]]
changes = "C24A C30G"
assay_readout = "self-cleavage"
value = 0.089

[[record]]
changes = "C7G G59A"
assay_readout = "self-cleavage"
value = 0.332

[[record]]
changes = "U60G G68A"
assay_readout = "self-cleavage"
value = 1.02

[[record]]
changes = "C22G G73U"
assay_readout = "self-cleavage"
value = 0

[[record]]
changes = "U20G G28A"
assay_readout = "self-cleavage"
value = 0.0536

[[record]]
changes = "G29U U60C"
assay_readout = "self-cleavage"
value = 0

[[record]]
changes = "U20C G35A"
assay_readout = "self-cleavage"
value = 0.101

[[record]]
changes = "G39A A71C"
assay_readout = "self-cleavage"
value = 0.332

[[record]]
changes = "C62A G73A"
assay_readout = "self-cleavage"
value = 0.545

[[record]]
changes = "C44G C86G"
assay_readout = "self-cleavage"
value = 0.499

[[record]]
changes = "C62U A71C"
assay_readout = "self-cleavage"
value = 0.812

[[record]]
changes = "G6A C63A"
assay_readout = "self-cleavage"
value = 0.407

[[record]]
changes = "G10A G52C"
assay_readout = "self-cleavage"
value = 0.812

[[record]]
changes = "G10A U12A"
assay_readout = "self-cleavage"
value = 0.0733

[[record]]
changes = "G67U U79A"
assay_readout = "self-cleavage"
value = 0.601

[[record]]
changes = "G17A C41G"
assay_readout = "self-cleavage"
value = 0.0997

[[record]]
changes = "U9A U60A"
assay_readout = "self-cleavage"
value = 0.923

[[record]]
changes = "A16U C85U"
assay_readout = "self-cleavage"
value = 1.03

[[record]]
changes = "A8C U46G"
assay_readout = "self-cleavage"
value = 0.554


Origin of values: the RNAGym collection of RNA variant scans (doi:10.7554/elife.80360)
